# TESTED TARGET: 20S proteasome β1 subunit (PGPH activity) (Homo sapiens, UniProt P28072)
# Sequence (P28072 35-239): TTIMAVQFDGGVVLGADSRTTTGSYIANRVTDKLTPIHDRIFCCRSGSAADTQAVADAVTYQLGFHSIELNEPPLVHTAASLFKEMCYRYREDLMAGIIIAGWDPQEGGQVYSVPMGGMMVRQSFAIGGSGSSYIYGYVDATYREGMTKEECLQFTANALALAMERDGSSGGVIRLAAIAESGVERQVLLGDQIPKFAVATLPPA
# ASSAY METHOD TEXT: fluorogenic substrate
# Type: biochemical
MEASUREMENT NAME: IC50 (µM)

COMPOUND: COc1ccc(O)c2c1Oc1cccc(c1)CCc1ccc(O)c(c1)Oc1ccc(cc1)CC2 [Mar, marchantin M]
MEASUREMENT NAME: IC50
VALUE: 5.33
